Data credit: patent US9999650B2

Read-out record for thrombin (Homo sapiens, UniProt P00734): pIC50
pIC50: −log10 of the molar value. Numbered stars: 1 amine (or outer) side, 2 acyl side, 3 side chain; on linkers, the order of the positions; unused ones are H or OH. Bridge positions count the residues as written; N and C are the ends. Square brackets hold non-standard residues; d marks the D form. Peptide text beside a SMILES is read from it. * marks the point of attachment. mXylylene = c1cc(C[*:1])cc(C[*:2])c1; Heptanoyl = CCCCCCC(=O)*; Mpa = O=C(O)CCS

Compound | pIC50
CCCCCCC(=O)N[C@H]1CSCc2cccc(c2)CSC[C@@H](C(=O)N[C@@H](CCCNC(=N)N)C(=O)N[C@H](C(N)=O)C(C)C)NC(=O)[C@H]([C@@H](C)CC)NC(=O)[C@H](CO)NC(=O)[C@H](CCC(=O)O)NC1=O [Compound R2041, [mXylyl(1,5)]Heptanoyl-CESICRV-NH2] (Heptanoyl-CESICRV-NH2; linker 1-5 via mXylylene) | < 4.00

Moving on to the next compound.
// returns pIC50 for CC[C@H](C)[C@@H]1NC(=O)[C@H](CO)NC(=O)[C@H](CCC(=O)O)NC(=O)CCSCc2cccc(c2)CSC[C@@H](C(=O)N[C@@H](CCCNC(=N)N)C(=O)N[C@H](C(N)=O)C(C)C)NC1=O [Compound R2051, [mXylyl(1,5)](des-NH2)C-ESICRV-NH2] ([Mpa]ESICRV-NH2; linker 1-5 via mXylylene) with thrombin (Homo sapiens, UniProt P00734); value = < 4.00

###

- Target entity: human plasma kallikrein (Homo sapiens)
- Construct: purchased Enzyme Research Laboratories HPKa 1303
- Sequence (P03952 20-390 limits assumed): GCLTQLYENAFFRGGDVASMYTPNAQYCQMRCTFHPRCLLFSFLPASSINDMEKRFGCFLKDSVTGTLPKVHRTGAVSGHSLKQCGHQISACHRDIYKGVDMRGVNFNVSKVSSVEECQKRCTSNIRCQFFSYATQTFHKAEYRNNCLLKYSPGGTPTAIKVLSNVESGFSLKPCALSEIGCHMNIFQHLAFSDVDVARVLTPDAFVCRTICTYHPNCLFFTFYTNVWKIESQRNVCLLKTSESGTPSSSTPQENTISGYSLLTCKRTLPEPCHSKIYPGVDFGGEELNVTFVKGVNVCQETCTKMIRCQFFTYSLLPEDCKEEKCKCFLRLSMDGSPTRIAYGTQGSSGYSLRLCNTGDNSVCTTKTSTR
- Sequence (P03952 391-638 limits assumed): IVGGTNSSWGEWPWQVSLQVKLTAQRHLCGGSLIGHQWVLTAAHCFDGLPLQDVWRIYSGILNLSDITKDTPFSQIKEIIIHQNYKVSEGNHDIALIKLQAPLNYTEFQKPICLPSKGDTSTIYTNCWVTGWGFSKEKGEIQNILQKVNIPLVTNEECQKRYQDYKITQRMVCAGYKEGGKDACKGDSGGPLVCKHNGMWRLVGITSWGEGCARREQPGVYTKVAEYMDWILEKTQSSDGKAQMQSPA
- Test details: Enzyme inhibition assay (fluorogenic substrate H-Pro-Phe-Arg-AMC)
- Type: biochemical
- Measurement parameters: Kallikrein inhibitory activity; 1 nM activated human kallikrein, 500 μM H-Pro-Phe-Arg-AMC, 1 hour room temperature; read-out: Avg. IC50
Numbered stars: 1 amine (or outer) side, 2 acyl side, 3 side chain; on linkers, the order of the positions; unused ones are H or OH. Bridge positions count the residues as written; N and C are the ends. Square brackets hold non-standard residues; d marks the D form. Peptide text beside a SMILES is read from it. X1 = O=C(C(N[*:1])C1CCc2ccccc2C1)[*:2]; mXylylene = c1cc(C[*:1])cc(C[*:2])c1; X2 = O=C(Cc1cccc(C[*:2])c1)[*:1]; Gly(cPr) = N[C@H](C(=O)O)C1CC1; Chg = N[C@H](C(=O)O)C1CCCCC1; Phg = N[C@H](C(=O)O)c1ccccc1; Tle = CC(C)(C)[C@H](N)C(=O)O; NMeS = CN[C@@H](CO)C(=O)O; Mpa = O=C(O)CCS; Sar = CNCC(=O)O
Quantity: IC50 (nM)
Reply numerically in nM, unit not repeated.

Recorded results for 4 molecules are shown here.
Molecule | IC50 (nM)
CN1CC(=O)N2CCC[C@H]2C(=O)N[C@@H](C2CCCCC2)C(=O)N[C@H](C(=O)N[C@@H](CCCNC(=N)N)C(=O)N[C@H](C(N)=O)C(C)(C)C)CSCc2cccc(c2)CC1=O [Compound R2257] ([Sar]P[Chg]CR[Tle]-NH2; linker N-4 via X2) | 383
CC(=O)N[C@H]1CSCc2cccc(c2)CSC[C@@H](C(=O)N[C@@H](CCCNC(=N)N)C(=O)N[C@H](C(N)=O)C2CC2)NC(=O)[C@H](c2ccccc2)NC(=O)[C@H](CO)NC(=O)[C@@H](C)NC1=O [Compound R2070, [mXylyl(1,5)]Ac-C-a-S-Phg-CR-Cppg-NH2] (Ac-C[dA]S[Phg]CR[Gly(cPr)]-NH2; linker 1-5 via mXylylene) | 118
CC(C)(C)[C@H](NC(=O)[C@H](CCCNC(=N)N)NC(=O)[C@@H]1CSCc2cccc(c2)CSCCC(=O)N2CCC[C@H]2C(=O)NC(C2CCc3ccccc3C2)C(=O)N1)C(N)=O (stereo partly shown) [Compound R2267] ([Mpa]P[X1]CR[Tle]-NH2; linker 1-4 via mXylylene) | 12.8
CC[C@H](C)[C@@H]1NC(=O)[C@H](CO)N(C)C(=O)[C@H](CCC(=O)O)NC(=O)[C@@H](NC(=O)[C@@H](N)CCSC)CSCc2cccc(c2)CSC[C@@H](C(=O)N[C@@H](CCCNC(=N)N)C(=O)N[C@H](C(N)=O)C(C)C)NC1=O [Compound R2019, [mXylyl(2,6)]MCE-nMeS-ICRV-NH2] (H-MCE[NMeS]ICRV-NH2; linker 2-6 via mXylylene; N-terminus assumed) | 52.3

Moving on to the next molecule.
Notebook: CC(=O)N[C@@H](CS)C(=O)N[C@@H](CC(N)=O)C(=O)N[C@@H](Cc1ccc(O)cc1)C(=O)N[C@@H](Cc1c[nH]c2ccccc12)C(=O)N[C@@H](C)C(=O)N1CCC[C@H]1C(=O)N[C@@H](Cc1c[nH]c2ccccc12)C(=O)N[C@H](C(=O)N[C@@H](CCC(=O)O)C(=O)N[C@@H](CS)C(N)=O)[C@@H](C)O [Compound R2131, Ac-CNYWAPWTEC-NH2] (Ac-CNYWAPWTEC-NH2) , IC50 read as 127
